// values below are reported Post-emerge Herbicidal Activity, phytotoxicity rating SETVI
Test system: green foxtail (Setaria viridis, SETVI)
assay.name: Post-emerge test, greenhouse herbicide activity screening
Format: in vivo
reported.conditions: Rate 250 g ai/ha; rating scale 0-100 (0 no damage, 100 complete death); 14 days after application
Protocol: A standard greenhouse herbicide activity screening system was used to evaluate the herbicidal efficacy and crop safety of these test compounds. […] At 14 days after application of the test materials, phytotoxicity ratings were recorded. […]
quantity.measured: Post-emerge Herbicidal Activity, phytotoxicity rating SETVI

compound	measurement
CCCCCOC(=O)C(Cl)Cc1c(OC)c(Cl)cc(F)c1-n1c(=O)cc(C(F)(F)F)n(C)c1=O (single isomer, unassigned)	100
C#CCOC(=O)C(Cl)Cc1c(OC)c(Cl)cc(F)c1-n1c(=O)cc(C(F)(F)F)n(C)c1=O (single isomer, unassigned)	30
COc1c(Cl)cc(F)c(-n2c(=O)cc(C(F)(F)F)n(C)c2=O)c1CC(Cl)C(=O)OCC(C)C (single isomer, unassigned)	70
COc1c(Cl)cc(F)c(-n2c(=O)cc(C(F)(F)F)n(C)c2=O)c1CC(C)(Cl)C(=O)OC(C(F)(F)F)C(F)(F)F (stereo not shown)	100

---

System: field corn (Zea mays L., var. Dekalb 535, CORN)
assay.name: Pre-emerge test, crop safety
Type: in vivo
reported.conditions: 63 g ai/ha; crop damage rating 0-100, 14 days after application
Procedure: A standard greenhouse herbicide activity screening system was used to evaluate the herbicidal efficacy and crop safety of these test compounds. […] At 14 days after application of the test materials, phytotoxicity ratings were recorded. […]
quantity.measured: Pre-emerge Herbicidal Activity CORN

compound	quantity.measured	measurement
COc1c(Cl)cc(F)c(-n2c(=O)cc(C(F)(F)F)n(C)c2=O)c1NC(=O)NCc1ccccc1 [Compound 3-6]	Pre-emerge Herbicidal Activity CORN	0
COc1c(Cl)cc(F)c(-n2c(=O)cc(C(F)(F)F)n(C)c2=O)c1NC(=O)Oc1ccccc1C(C)(C)C [4-27]	Pre-emerge Herbicidal Activity CORN	0
COC(=O)Nc1c(OC)c(Cl)cc(F)c1-n1c(=O)cc(C(F)(F)F)n(C)c1=O [Compound 4-1]	Pre-emerge Herbicidal Activity CORN	10
Cc1ccc(-n2c(=O)cc(C(F)(F)F)n(C)c2=O)c(NC(=O)c2ccc3ccccc3c2)c1 [2-201]	Pre-emerge Herbicidal Activity CORN	0
COc1c(Cl)cc(F)c(-n2c(=O)cc(C(F)(F)F)n(C)c2=O)c1NC(=O)OCc1ccccn1 [4-36]	Pre-emerge Herbicidal Activity CORN	90
Cn1c(C(F)(F)F)cc(=O)n(-c2c(F)cc(Cl)c(O)c2NC(=O)c2ccc3ccccc3c2)c1=O [Compound 2-194]	Pre-emerge Herbicidal Activity CORN	0
COc1c(Cl)cc(F)c(-n2c(=O)cc(C(F)(F)F)n(C)c2=O)c1NC(=O)OCc1ccccc1[N+](=O)[O-] [4-34]	Pre-emerge Herbicidal Activity CORN	10

---

System: green foxtail (Setaria viridis, SETVI)
assay.name: Post-emerge test, greenhouse herbicide activity screening
Type: in vivo
reported.conditions: post-emerge, 250 g ai/ha, phytotoxicity rating 0-100 at 14 days after application
// values below are reported Post-emerge Herbicidal Activity SETVI
quantity.measured: Post-emerge Herbicidal Activity SETVI

compound	measurement
Nc1c(OC2CCCC2)c(Cl)cc(F)c1N1C(=O)C2=C(CCCC2)C1=O	20
COc1ccccc1COC(=O)Nc1c(C)c(Cl)cc(F)c1-n1c(=O)cc(C(F)(F)F)n(C)c1=O	90
COc1cccc(COC(=O)Nc2c(C)c(Cl)cc(F)c2-n2c(=O)cc(C(F)(F)F)n(C)c2=O)c1	100
Nc1c(O)c(Cl)cc(F)c1N1C(=O)C2CCCCN2C1=S (single isomer, unassigned)	50
COc1c(Cl)cc(F)c(-n2ncc(C(F)(F)F)c(C)c2=O)c1NC(=O)c1ccc2ccccc2c1	40
Cc1ccc(COC(=O)Nc2c(C)c(Cl)cc(F)c2-n2c(=O)cc(C(F)(F)F)n(C)c2=O)cc1	90
O=C(Nc1cc(Cl)ccc1-n1c(=O)n2n(c1=O)CCCC2)c1ccc2ccccc2c1	20

---

Tested on: lambsquarters (Chenopodium album, CHEAL)
assay.name: Post-emerge test, greenhouse herbicide activity screening
Format: in vivo
reported.conditions: Rate 63 g ai/ha; rating scale 0-100 (0 no damage, 100 complete death); 14 days after application
// values below are reported Post-emerge Herbicidal Activity, phytotoxicity rating CHEAL
quantity.measured: Post-emerge Herbicidal Activity, phytotoxicity rating CHEAL

molecule	target.entity	measurement
COc1c(Cl)cc(F)c(-n2c(=O)cc(C(F)(F)F)n(C)c2=O)c1CC(C)(Cl)C(=O)OCCSC (centres unmarked)	lambsquarters (Chenopodium album, CHEAL)	100
COc1c(Cl)cc(F)c(-n2c(=O)cc(C(F)(F)F)n(C)c2=O)c1CC(Cl)C(=O)OC(C)(C)C (centres unmarked)	lambsquarters (Chenopodium album, CHEAL)	99
CCCCOC(=O)C(C)(Cl)Cc1c(OC)c(Cl)cc(F)c1-n1c(=O)cc(C(F)(F)F)n(C)c1=O (centres unmarked)	lambsquarters (Chenopodium album, CHEAL)	99
CCCCCOC(=O)C(Cl)Cc1c(OC)c(Cl)cc(F)c1-n1c(=O)cc(C(F)(F)F)n(C)c1=O (single isomer, unassigned)	lambsquarters (Chenopodium album, CHEAL)	90
CCOC(=O)C(Cl)(CC(=O)OC)Cc1c(OC)c(Cl)cc(F)c1-n1c(=O)cc(C(F)(F)F)n(C)c1=O (centres unmarked)	lambsquarters (Chenopodium album, CHEAL)	50
CCCOC(=O)C(Cl)Cc1c(OC)c(Cl)cc(F)c1-n1c(=O)cc(C(F)(F)F)n(C)c1=O (single isomer, unassigned)	lambsquarters (Chenopodium album, CHEAL)	90
COc1c(Cl)cc(F)c(-n2c(=O)cc(C(F)(F)F)n(C)c2=O)c1CC(C)(Cl)C(=O)OC(C)C (centres unmarked)	lambsquarters (Chenopodium album, CHEAL)	100
CCOC(=O)CCc1c(OC)c(Cl)cc(F)c1-n1c(=O)cc(C(F)(F)F)n(C)c1=O	lambsquarters (Chenopodium album, CHEAL)	80
COc1c(Cl)cc(F)c(-n2c(=O)cc(C(F)(F)F)n(C)c2=O)c1CC(C)(Cl)C(=O)OC(C(F)(F)F)C(F)(F)F (centres unmarked)	lambsquarters (Chenopodium album, CHEAL)	100
CCOC(=O)C(C)(Cl)Cc1c(OC)c(Cl)cc(F)c1-n1c(=O)cc(C(F)(F)F)n(C)c1=O (centres unmarked)	lambsquarters (Chenopodium album, CHEAL)	100
COc1c(Cl)cc(F)c(-n2c(=O)cc(C(F)(F)F)n(C)c2=O)c1CC(Cl)C(=O)OCC(F)(F)C(F)(F)C(F)(F)F (single isomer, unassigned) [14-23]	lambsquarters (Chenopodium album, CHEAL)	50

---

Tested on: velvetleaf (Abutilon theophrasti, ABUTH)
assay.name: Post-emerge test, greenhouse herbicide activity screening
Assay type: in vivo
reported.conditions: Rate 63 g ai/ha; rating scale 0-100 (0 no damage, 100 complete death); 14 days after application
quantity.measured: Post-emerge Herbicidal Activity, phytotoxicity rating ABUTH

molecule	target.entity	measurement
CCCCOC(=O)C(Cl)Cc1c(OC)c(Cl)cc(F)c1-n1c(=O)cc(C(F)(F)F)n(C)c1=O (single isomer, unassigned)	velvetleaf (Abutilon theophrasti, ABUTH)	70
COc1c(Cl)cc(F)c(-n2c(=O)cc(C(F)(F)F)n(C)c2=O)c1CC(Cl)C(=O)OCC(F)(F)C(F)(F)C(F)(F)F (single isomer, unassigned)	velvetleaf (Abutilon theophrasti, ABUTH)	70
COc1c(Cl)cc(F)c(-n2c(=O)cc(C(F)(F)F)n(C)c2=O)c1CC(Cl)C(=O)OCCOc1ccccc1 (single isomer, unassigned) [14-27]	velvetleaf (Abutilon theophrasti, ABUTH)	70

---

Tested on: field corn (Zea mays L., var. Dekalb 535, CORN)
assay.name: Post-emerge test, crop safety
Format: in vivo
reported.conditions: post-emerge, 250 g ai/ha, 14 days after application, rating scale 0-100
// values below are reported phytotoxicity rating CORN (crop damage)
quantity.measured: phytotoxicity rating CORN (crop damage)

compound	quantity.measured	measurement
COc1c(Cl)cc(F)c(-n2c(=O)cc(C(F)(F)F)n(C)c2=O)c1NC(=O)NCc1ccccc1	phytotoxicity rating CORN (crop damage)	70
Cn1c(C(F)(F)F)cc(=O)n(-c2ccc(Cl)cc2NC(=O)C2CC2)c1=O	phytotoxicity rating CORN (crop damage)	10
CCOC(=O)C(C)Oc1c(Cl)cc(F)c(-n2c(=O)cc(C(F)(F)F)n(C)c2=O)c1NC(=O)c1ccc2ccccc2c1 (stereo not drawn)	phytotoxicity rating CORN (crop damage)	20
Cc1cccc(C)c1OC(=O)Nc1c(C)c(Cl)cc(F)c1-n1c(=O)cc(C(F)(F)F)n(C)c1=O	phytotoxicity rating CORN (crop damage)	5
COc1c(Cl)cc(F)c(-n2c(=O)cc(C(F)(F)F)n(C)c2=O)c1NC(=O)OCc1ccccc1[N+](=O)[O-]	phytotoxicity rating CORN (crop damage)	50
Cn1c(C(F)(F)F)cc(=O)n(-c2ccc(Cl)cc2NC(=O)Oc2ccccc2)c1=O	phytotoxicity rating CORN (crop damage)	10
CCOC(=O)COc1c(Cl)cc(F)c(-n2c(=O)cc(C(F)(F)F)n(C)c2=O)c1NC(=O)C=Cc1ccccc1	phytotoxicity rating CORN (crop damage)	10
COc1c(Cl)cc(F)c(-n2c(=O)cc(C(F)(F)F)n(C)c2=O)c1NC(=O)OCc1ccccc1C(F)(F)F	phytotoxicity rating CORN (crop damage)	25
Cc1ccccc1COC(=O)Nc1c(C)c(Cl)cc(F)c1-n1c(=O)cc(C(F)(F)F)n(C)c1=O	phytotoxicity rating CORN (crop damage)	100
Cc1c(Cl)cc(F)c(-n2c(=O)cc(C(F)(F)F)n(C)c2=O)c1NC(=O)OCCc1ccccc1	phytotoxicity rating CORN (crop damage)	90
COc1c(Cl)cc(F)c(-n2c(=O)cc(C(F)(F)F)n(C)c2=O)c1NC(=O)OCc1cc(C)cc(C)c1	phytotoxicity rating CORN (crop damage)	60
Cn1c(C(F)(F)F)cc(=O)n(-c2c(F)cc(Cl)c(O)c2NC(=O)c2ccc3ccccc3c2)c1=O	phytotoxicity rating CORN (crop damage)	5
COc1c(Cl)cc(F)c(-n2c(=O)cc(C(F)(F)F)n(C)c2=O)c1NC(=O)Nc1ccccc1	phytotoxicity rating CORN (crop damage)	0
COc1c(Cl)ccc(-n2c(=O)cc(C(F)(F)F)n(C)c2=O)c1NC(=O)c1ccc2ccccc2c1	phytotoxicity rating CORN (crop damage)	30
COc1c(Cl)cc(F)c(-n2c(=O)cc(C(F)(F)F)n(C)c2=O)c1NC(=O)C1CC1	phytotoxicity rating CORN (crop damage)	0
COc1c(Cl)cc(F)c(-n2c(=O)cc(C(F)(F)F)n(C)c2=O)c1NC(=O)OCc1c(Cl)cccc1Cl	phytotoxicity rating CORN (crop damage)	70
CCc1ccc(COC(=O)Nc2c(OC)c(Cl)cc(F)c2-n2c(=O)cc(C(F)(F)F)n(C)c2=O)cc1	phytotoxicity rating CORN (crop damage)	25
COc1c(Cl)cc(F)c(-n2c(=O)cc(C(F)(F)F)n(C)c2=O)c1NC(=O)OCc1ccc2ccccc2c1	phytotoxicity rating CORN (crop damage)	5
Cn1c(C(F)(F)F)cc(=O)n(-c2ccc(OC(F)(F)F)cc2NC(=O)c2ccc3ccccc3c2)c1=O	phytotoxicity rating CORN (crop damage)	10
COc1c(Cl)cc(F)c(-n2c(=O)cc(C(F)(F)F)n(C)c2=O)c1NC(=O)OCc1c(F)cccc1F	phytotoxicity rating CORN (crop damage)	100
COc1c(Cl)cc(F)c(-n2c(=O)cc(C(F)(F)F)n(C)c2=O)c1NC(=O)OCc1c(F)c(F)c(F)c(F)c1F	phytotoxicity rating CORN (crop damage)	90
Cc1ccc(-n2c(=O)cc(C(F)(F)F)n(C)c2=O)c(NC(=O)c2ccc3ccccc3c2)c1	phytotoxicity rating CORN (crop damage)	35
COc1c(Cl)cc(F)c(-n2c(=O)cc(C(F)(F)F)n(C)c2=O)c1NC(=O)OCc1ccc(C(C)C)cc1	phytotoxicity rating CORN (crop damage)	0
COc1c(Cl)cc(F)c(-n2c(=O)cc(C(F)(F)F)n(C)c2=O)c1NC(=O)Oc1ccccc1C(C)(C)C	phytotoxicity rating CORN (crop damage)	10
